Every entry's value here was drawn from PubChem BioAssay (NCI).

experiment: NCI Yeast Anticancer Drug Screen. Data for the rad18 strain (AID 177); settings: S. cerevisiae rad18 mutant growth inhibition; at 1.2 µM; hits give high values
About 79,000 compounds went through this panel and 15% of them were active in at least one assay; those are over-represented in the sample as a whole. Activity calls are given as the source filed them. Cut-off read from the data, not from the text of the source: active = growth inhibition above about 70%; inactive = the rest.
# growth inhibition per record follows

{"molecule": "OC(c1ccccc1)(c1ccccc1)c1nccc2ccccc12", "growth inhibition": "0% (inactive)"}
{"molecule": "Fc1cc(F)c(F)c(S)c1F", "growth inhibition": "-43% (inactive)"}
{"molecule": "C=C(C(=O)OC)N1C(=O)CC(C)C1=O (stereo not given)", "growth inhibition": "-5% (inactive)"}
{"molecule": "CC(=O)/C=C/c1cc([N+](=O)[O-])ccc1O", "growth inhibition": "-51% (inactive)"}
{"molecule": "Cc1cccc2c(Cl)c3cccc(C)c3nc12", "growth inhibition": "-3% (inactive)"}
{"molecule": "O=C1c2cccc3cccc(c23)C(=O)N1CCNCCN1C(=O)c2cccc3cccc(c23)C1=O", "growth inhibition": "-3% (inactive)"}
{"molecule": "O=C(CCSC1=NCCCN1)c1ccc(F)cc1", "growth inhibition": "-13% (inactive)"}
{"molecule": "O=C1NC(c2cccc(OCc3ccccc3)c2)Nc2ccccc21 (stereo not given)", "growth inhibition": "-6% (inactive)"}
{"molecule": "CCOC(=O)/C(=C\\c1cccc(C)c1)C(C)=O", "growth inhibition": "3% (inactive)"}
{"molecule": "CN1C(=O)C(CC(=O)O)NC1=S (stereo not given)", "growth inhibition": "1% (inactive)"}
{"molecule": "O=S(=O)(c1cccc(C(F)(F)F)c1)N1c2ccccc2-n2cccc2C1c1cccnc1 (stereo not given)", "growth inhibition": "-7% (inactive)"}
{"molecule": "OC(Cc1cccc2ccccc12)CN1CCC(c2ccccc2)CC1 (stereo not given)", "growth inhibition": "30% (inactive)"}
{"molecule": "CCC1(O)C(=O)OCc2c1cc1n(c2=O)Cc2cc3c(N)cccc3nc2-1 (stereo not given)", "growth inhibition": "-42% (inactive)"}
{"molecule": "O=C1C(/C=C/c2ccc(Cl)cc2)=NNC2N1N=C1NC(=O)C3(NN12)c1ccccc1-c1ccccc13 (stereo not given)", "growth inhibition": "-3% (inactive)"}
{"molecule": "O=C1C(=O)N(c2ccccc2)[C@@]2(c3ccccc3)C(=Nc3ccccc3)OC(c3ccccc3)=C12", "growth inhibition": "-3% (inactive)"}
{"molecule": "COc1ccc2nc(CCc3ccccc3)ccc2c1", "growth inhibition": "-11% (inactive)"}
{"molecule": "C[n+]1c(/C=C/c2ccc(/C=N/NC(=O)c3ccc(C(=O)N/N=C/c4ccc(/C=C/c5cn6ccccc6[n+]5C)cc4)cc3)cc2)cn2ccccc21", "growth inhibition": "46% (inactive)"}
{"molecule": "CCCCCCCCCCCCCCCCCCNC(=S)/N=C/c1c(O)c2ccccc2[nH]c1=O", "growth inhibition": "2% (inactive)"}
{"molecule": "C[C@H](CCC1=NC(C)(C)CO1)C1CCC2[C@@H]3C(O)C[C@@H]4CC(O)CC[C@]4(C)C3CC[C@@]21C (stereo not given in full)", "growth inhibition": "-5% (inactive)"}
{"molecule": "NC(=S)N1N=C2c3ccccc3CC[C@@H]2[C@@H]1c1ccccc1", "growth inhibition": "-25% (inactive)"}
{"molecule": "COc1cc([C@@H]2c3cc4c(cc3[C@@H](NC(=O)NO)[C@H]3COC(=O)[C@H]23)OCO4)cc(OC)c1O", "growth inhibition": "-2% (inactive)"}
{"molecule": "COC(=O)/C(C#N)=C\\NC(=S)C(N)=S", "growth inhibition": "-4% (inactive)"}
{"molecule": "Cc1cccc(C)c1NC(=O)CCC(=O)C(C)C(=O)c1ccc(O)cc1 (stereo not given)", "growth inhibition": "-2% (inactive)"}
{"molecule": "O=C(NCCCCN1CC2CCCC2C1)C(C1CCCCC1)C1CCCCC1 (stereo not given)", "growth inhibition": "16% (inactive)"}
{"molecule": "CC(C)C(c1ccccc1)c1ccccc1", "growth inhibition": "3% (inactive)"}
{"molecule": "CC(C)Cc1ncc(CCCN=C(N)N)[nH]c1=O", "growth inhibition": "-7% (inactive)"}
{"molecule": "CCC[CH2][Sn]([CH2]CCC)([CH2]CCC)/[C](=C/[Si](C)(C)c1ccccc1)c1ccc2c(c1)OCO2", "growth inhibition": "25% (inactive)"}
{"molecule": "COC1=CCC23C(=O)C=CC(=O)C2(C1)C(=O)c1ccccc1C3=O (stereo not given)", "growth inhibition": "-21% (inactive)"}
{"molecule": "CCO/C=C1\\SC(=S)N(c2ccc(OCC)cc2)C1=O", "growth inhibition": "-37% (inactive)"}
{"molecule": "O=C(CN(c1ccccc1)c1ccccc1)n1nnc2ccccc21", "growth inhibition": "6% (inactive)"}
{"molecule": "O=C1C(=C2CCCC2)CCC1CN1CCCCC1 (stereo not given)", "growth inhibition": "8% (inactive)"}
{"molecule": "Nc1ccc(S(=O)(=O)Nc2nc3c(c(=O)[nH]2)CCCC3)cc1", "growth inhibition": "33% (inactive)"}
{"molecule": "CCCN=Cc1cc(Cc2ccc(O)c(C=NCCC)c2)ccc1O", "growth inhibition": "45% (inactive)"}
{"molecule": "N#CSCC1COc2ccccc2O1 (stereo not given)", "growth inhibition": "-21% (inactive)"}
{"molecule": "NCCOc1ccc(/C(=C(/Cl)c2ccccc2)c2ccccc2)cc1", "growth inhibition": "16% (inactive)"}
{"molecule": "CSc1nc(-c2ccccc2)nc(=[N+]2CCOCC2)s1", "growth inhibition": "16% (inactive)"}
{"molecule": "O=C(c1ccccc1)[C@H]1Nc2ccc(Cl)cc2[C@H]2OCCC[C@@H]12", "growth inhibition": "-13% (inactive)"}
{"molecule": "COc1ccc2c3c1OC(C)C31CC(=O)CCC1CC2 (stereo not given)", "growth inhibition": "-7% (inactive)"}
{"molecule": "OC1(C#CI)CCCCC1", "growth inhibition": "3% (inactive)"}
{"molecule": "CCCCCCCCCCCCCCN", "growth inhibition": "-3% (inactive)"}
{"molecule": "CCN(CC)C(=S)SC(=S)N(CC)CC", "growth inhibition": "-26% (inactive)"}
{"molecule": "CCOP(=O)(OCC)/C(C#N)=C/c1cccc(Oc2ccccc2)c1", "growth inhibition": "-6% (inactive)"}
{"molecule": "O=C(O)c1ccc2cc(Cl)c3ccccc3c2c1", "growth inhibition": "2% (inactive)"}
{"molecule": "N#CCCC1C(C#N)C2(Cl)CC1(Cl)C(Cl)=C2Cl (stereo not given)", "growth inhibition": "-4% (inactive)"}
{"molecule": "CC1(c2ccccc2)O[C@@H]2C[C@H]3[C@@H]4CCC5=CC(=O)C=C[C@]5(C)[C@@]4(F)[C@@H](O)C[C@]3(C)[C@]2(C(=O)CO)O1 (stereo not given in full)", "growth inhibition": "-1% (inactive)"}
